- Tested on: human Factor 7 mRNA
- test method notes: Dose-dependent antisense inhibition of human Factor 7 in HepB3 cells, transfection with lipofectin
- Type: cell-based
- settings: lipofectin, HepB3 cells, 16 hours
In the oligonucleotide strings, read from the 5' end, every base follows the letter of its sugar. An asterisk marks phosphorothioate; unmarked linkages are phosphodiester. Other units and linkages are bracketed, terminal groups are in braces. A string of capitals states the bases alone. e = 2'-O-(2-methoxyethyl) (MOE); [5mC] = 5-methylcytosine; d = 2'-deoxy (DNA)
Would you kindly list percent inhibition of Factor 7 mRNA, relative to untreated control cells for each of these substances?
Give a bare numeral; the unit % is implied.

Param readout = percent inhibition of Factor 7 mRNA, relative to untreated control cells; param system = human Factor 7 mRNA; param query = 422087 (antisense e[5mC]*eA*eT*eG*e[5mC]*dA*dT*dG*dG*dT*dG*dA*dT*dG*d[5mC]*eT*eT*e[5mC]*eT*eG) [compound 422087] ; response: value
24

Would you kindly repeat that for 422229 (antisense eA*eT*dG*d[5mC]*dA*dT*dG*dG*dT*dG*dA*dT*dG*d[5mC]*dT*eT*e[5mC]*eT*eG*eA) [compound 422229] ?
32

Now consider 422086 (antisense eT*eG*e[5mC]*eA*eT*dG*dG*dT*dG*dA*dT*dG*d[5mC]*dT*dT*e[5mC]*eT*eG*eA*eA) [compound 422086] and answer again.
26

Entry to check: 422228 (antisense eT*eG*d[5mC]*dA*dT*dG*dG*dT*dG*dA*dT*dG*d[5mC]*dT*dT*e[5mC]*eT*eG*eA*eA) [compound 422228]
25

Query 422252 (antisense e[5mC]*eG*d[5mC]*d[5mC]*dG*dG*d[5mC]*dT*d[5mC]*dT*dG*d[5mC]*dT*d[5mC]*dA*eT*e[5mC]*e[5mC]*e[5mC]*e[5mC]) [compound 422252] next
17

Can you handle 422096 (antisense eA*eG*eA*e[5mC]*eA*dA*dT*dG*dG*dT*d[5mC]*dA*dG*dG*dG*e[5mC]*eT*eG*eG*eT) [compound 422096] next?
23

422215 (antisense eG*eT*eT*d[5mC]*dT*dG*d[5mC]*dA*dG*dG*dA*dG*d[5mC]*dG*dG*d[5mC]*d[5mC]*eT*eA*eA) [compound 422215] ?
30

Try this substance next: 407935 (antisense eA*eT*eG*e[5mC]*eA*dT*dG*dG*dT*dG*dA*dT*dG*d[5mC]*dT*eT*e[5mC]*eT*eG*eA) [compound 407935]
39

Here is the next substance: 422292 (antisense eG*eT*dT*d[5mC]*dT*dG*d[5mC]*dA*dG*dG*dA*dG*d[5mC]*dG*dG*e[5mC]*e[5mC]*eT*eA*eA) [compound 422292]
21

Another substance to check: 422295 (antisense e[5mC]*eG*dA*dG*dT*dT*d[5mC]*dT*dG*d[5mC]*dA*dG*dG*dA*dG*e[5mC]*eG*eG*e[5mC]*e[5mC]) [compound 422295]
22

Then 422142 (antisense eG*eA*eG*eT*eT*d[5mC]*dT*dG*d[5mC]*dA*dG*dG*dA*dG*d[5mC]*eG*eG*e[5mC]*e[5mC]*eT) [compound 422142] ?
34

Reference source for all entries: patent US20120214862A1
